Assay: Elimination half life in Sprague-Dawley rat plasma at 3 mg/kg, iv by UPLC-MS analysis
Type: ADME, organism-based
Conditions: read-out: beta t1/2

smiles notation: Cl.O=C(NCCCCN1CCN(c2cccc(Cl)c2Cl)CC1)Oc1ccc(-c2ccccc2)cc1
half-life: 2.42 h

###

Assay: Cmax in Sprague-Dawley rat plasma at 10 mg/kg, po by UPLC-MS analysis
Format: ADME, organism-based
Parameters: dose 10 mg/kg, route oral
recorded metric: Cmax (ng/mL)

smiles notation: Cl.O=C(NCCCCN1CCN(c2cccc(Cl)c2Cl)CC1)Oc1ccc(-c2ccccc2)cc1
unit tag: ng/mL
measurement: 54

###

Assay: Cmax in Sprague-Dawley rat plasma at 3 mg/kg, iv by UPLC-MS analysis
Format: ADME, organism-based
Design: dose 3 mg/kg, route intravenous

smiles notation: Cl.O=C(NCCCCN1CCN(c2cccc(Cl)c2Cl)CC1)Oc1ccc(-c2ccccc2)cc1
unit tag: ng/mL
Cmax: 500
